# System: MT-2 cells
# experimental details: Cytotoxicity in MT-2 cells, flow cytometry cell counts and viability
# Type: cell-based, human
# condition notes: MT-2 cells, 72 hrs; read-out: CC50
The molecules listed here are annotated with their CC50.
assay readout: CC50 (µM)

1) CCCCCCCCCCCCCCCCCCOC[C@H](COP(=O)(CO[C@H](CO)Cn1ccc(N)nc1=O)OCc1ccccc1)OCc1ccccc1 (some centres unmarked) :: 22
2) CCCCCCCCCCCCCCCCCCOC[C@H](COP(=O)(CO[C@H](CO)Cn1cnc2c(N)ncnc21)OCc1ccccc1)OCc1ccccc1 (some centres unmarked) :: 19

* * *

# experimental details: in vitro
# condition notes: human
assay readout: CC50 (nM)

1. CCCCCCCCCCCCCCCCCCOCCOP(=O)(COCCn1cnc2c(=O)[nH]c(N)nc21)OCc1ccccc1 (racemic) :: 40

* * *

Catalogue of EC50 readings, one per entry.
# Tested on: HIV-1LAI
# experimental details: HIV antiviral assay in MT-2 cells, p24 reduction
# condition notes: Human immunodeficiency virus 1, MT2, 96 h
assay readout: EC50 (nM)

1) CCCCCCCCCCCCCCCCCCOCCOP(=O)(CO[C@H](CO)Cn1ccc(N)nc1=O)OCc1ccccc1 (stereo partly shown) [Compound 219] :: 2700
2) CCCCCCCCCCCCCCCCCCOCCOP(=O)(CO[C@H](CO)Cn1cnc2c(N)ncnc21)OCc1ccccc1 (stereo partly shown) [Compound 218] :: 130

* * *

# experimental details: Antiproliferative activity, neutral red, normal human fibroblasts
assay readout: CC50 at 4 days (µM)

1) CCCCCCCCCCCCCCCCCCOCCOP(=O)(COCCn1cnc2c(=O)[nH]c(N)nc21)OCc1ccccc1 (racemic) :: 15

* * *

# experimental details: Viability of PBMC by XTT reduction
# condition notes: human, PHA-stimulated human PBMCs
Define the label as True when CC50 at 7 days is strictly less than 10 µM and as False in all remaining cases.

1. CCCCCCCCCCCCCCCCCCOCCOP(=O)(CO[C@H](C)Cn1cnc2c(N)ncnc21)OCc1ccccc1 (stereo partly drawn) [Compound 74] :: False
2. CCCCCCCCCCCCCCCCCCOCCOP(=O)(CO[C@H](CO)Cn1ccc(N)nc1=O)OCc1ccccc1 (stereo partly drawn) [Compound 219] :: True
3. CCCCCCCCCCCCCCCCCCOCCOP(=O)(CO[C@H](CO)Cn1cnc2c(N)ncnc21)OCc1ccccc1 (stereo partly drawn) [Compound 218] :: True
4. CCCCCCCCCCCCCCCCCCOCCOP(=O)(CO[C@H](C)Cn1cnc2c(=O)[nH]c(N)nc21)OCc1ccccc1 (stereo partly drawn) [Compound 73] :: False
5. CCCCCCCCCCCCCCCCCCOCCOP(=O)(CO[C@H](COC)Cn1cnc2c(N)ncnc21)OCc1ccccc1 (stereo partly drawn) [Compound 146] :: False
6. CCCCCCCCCCCCCCCCCCOCCOP(=O)(COCCn1cnc2c(N)ncnc21)OCc1ccccc1 (stereo not drawn) [Compound 2] :: False

* * *

# experimental details: Cytotoxicity in MT-2 cells, flow cytometry cell counts and viability
# Type: cell-based, human
# condition notes: human; MT-2 cells, 72 hrs
assay readout: CC50 at 72 h (µM)

1) CCCCCCCCCCCCCCCCCCOCCOP(=O)(CO[C@H](CO)Cn1ccc(N)nc1=O)OCc1ccccc1 (stereo partly shown) :: 18
2) CCCCCCCCCCCCCCCCCCOCCOP(=O)(COCCn1cnc2c(=O)[nH]c(N)nc21)OCc1ccccc1 (racemic) :: 0.036
3) CCCCCCCCCCCCCCCCCCOCCOP(=O)(CO[C@H](CO)Cn1cnc2c(N)ncnc21)OCc1ccccc1 (stereo partly shown) :: 2.3

* * *

# Tested on: COS7 cells
# condition notes: uninfected COS7 cells, […]
CC50 by entry:
assay readout: CC50 (µM)

1) CCCCCCCCCCCCCCCCCCOC[C@H](COP(=O)(CO[C@H](CO)Cn1ccc(N)nc1=O)OCc1ccccc1)OCc1ccccc1 (some centres unmarked) :: 62.6
2) CCCCCCCCCCCCCCCCCCOC[C@H](COP(=O)(CO[C@H](CO)Cn1cnc2c(N)ncnc21)OCc1ccccc1)OCc1ccccc1 (some centres unmarked) :: 18.4

* * *

# System: HPV-11
# experimental details: HPV-11 origin replication in HEK 293 cells, qPCR
# Assay type: cell-based
# condition notes: HPV-11, HEK 293 cells
# Method: An origin-containing plasmid was co-transfected with HPV-11 E1 and E2 protein expression vectors into HEK 293 cells. At 4 hr post-transfection, cells were treated with compound dilutions and the cells were incubated for 48 hr. Replication of the virus origin was detected with DpnI and exonuclease III to remove unreplicated input bacterial plasmid DNA. Remaining replicated DNA was quantified by qPCR. Toxicity was determined by trypan blue exclusion.
assay readout: Selectivity Index

1) CCCCCCCCCCCCCCCCCCOCCOP(=O)(CO[C@H](CO)Cn1ccc(N)nc1=O)OCc1ccccc1 (stereo partly shown) [Compound 219] :: >4.9
2) CCCCCCCCCCCCCCCCCCOCCOP(=O)(COCCn1cnc2c(=O)[nH]c(N)nc21)OCc1ccccc1 (racemic) [Compound 1] :: >204
3) CCCCCCCCCCCCCCCCCCOCCOP(=O)(CO[C@H](CO)Cn1cnc2c(N)ncnc21)OCc1ccccc1 (stereo partly shown) [Compound 218] :: >370
4) CCCCCCCCCCCCCCCCCCOCCOP(=O)(COCCn1cnc2c(N)ncnc21)OCc1ccccc1 (stereo not shown) [Compound 2] :: >130

* * *

# Tested on: HEK 293 cells
# experimental details: Toxicity in HEK 293 cells by trypan blue exclusion (HPV-11 example)
# Type: cell-based
assay readout: CC50

1. CCCCCCCCCCCCCCCCCCOC[C@H](COP(=O)(CO[C@H](CO)Cn1cnc2c(N)ncnc21)OCc1ccccc1)OCc1ccccc1 (some centres unmarked) [Compound 230] :: > 10 µM
2. CCCCCCCCCCCCCCCCCCOC[C@H](COP(=O)(CO[C@H](CO)Cn1ccc(N)nc1=O)OCc1ccccc1)OCc1ccccc1 (some centres unmarked) [Compound 231] :: > 10 µM

* * *

# experimental details: Toxicity in primary human keratinocyte raft cultures by histology
assay readout: CC50

1. CCCCCCCCCCCCCCCCCCOCCOP(=O)(CO[C@H](CO)Cn1ccc(N)nc1=O)OCc1ccccc1 (stereo partly drawn) [Compound 219] :: > 10 µM
2. CCCCCCCCCCCCCCCCCCOCCOP(=O)(COCCn1cnc2c(=O)[nH]c(N)nc21)OCc1ccccc1 (racemic) [Compound 1] :: 10 µM
3. CCCCCCCCCCCCCCCCCCOCCOP(=O)(CO[C@H](CO)Cn1cnc2c(N)ncnc21)OCc1ccccc1 (stereo partly drawn) [Compound 218] :: > 10 µM

* * *

Reported pEC50 values follow for various compounds
# Test system: HPV-11
# experimental details: HPV-11 origin replication in HEK 293 cells, qPCR
# Format: cell-based
# condition notes: HPV-11 origin replication in HEK 293 cells, 48 hr, qPCR
pEC50: −log10 of the molar value.
assay readout: pEC50

1. CCCCCCCCCCCCCCCCCCOC[C@H](COP(=O)(CO[C@H](CO)Cn1ccc(N)nc1=O)OCc1ccccc1)OCc1ccccc1 (some centres unmarked) [Compound 231] :: 5.81
2. CCCCCCCCCCCCCCCCCCOC[C@H](COP(=O)(CO[C@H](CO)Cn1cnc2c(N)ncnc21)OCc1ccccc1)OCc1ccccc1 (some centres unmarked) [Compound 230] :: 6.25

* * *

# experimental details: Cytotoxicity in HFF cells in parallel to HSV-2 assay
# condition notes: human, […]
assay readout: CC50 at 3 days (µM)

1. CCCCCCCCCCCCCCCCCCOCCOP(=O)(CO[C@H](CO)Cn1cnc2c(N)ncnc21)OCc1ccccc1 (stereo partly drawn) :: 6.91
2. CCCCCCCCCCCCCCCCCCOCCOP(=O)(CO[C@H](CO)Cn1ccc(N)nc1=O)OCc1ccccc1 (stereo partly drawn) :: 13.1

* * *

Reported EC50 values are given for each entry in this list.
# System: MAD-1 strain of JC virus
# experimental details: Antiviral effect in JC virus (MAD-1) infected COS7 cells, qPCR
# condition notes: JC polyomavirus, COS-7, 168 h
assay readout: EC50

1) CCCCCCCCCCCCCCCCCCOCCOP(=O)(CO[C@H](CO)Cn1ccc(N)nc1=O)OCc1ccccc1 (stereo partly shown) :: > 4 µM
2) CCCCCCCCCCCCCCCCCCOCCOP(=O)(COCCn1cnc2c(=O)[nH]c(N)nc21)OCc1ccccc1 (racemic) :: 0.07 µM
3) CCCCCCCCCCCCCCCCCCOCCOP(=O)(CO[C@H](CO)Cn1cnc2c(N)ncnc21)OCc1ccccc1 (stereo partly shown) :: > 4 µM
4) CCCCCCCCCCCCCCCCCCOCCOP(=O)(COCCn1cnc2c(N)ncnc21)OCc1ccccc1 (stereo not shown) :: > 4 µM

* * *

Consider the following molecules and their measured CC50 at 7 days readings.
# experimental details: Viability of PBMC by XTT reduction
# condition notes: human
assay readout: CC50 at 7 days (µM)

1) CCCCCCCCCCCCCCCCCCOCCOP(=O)(COCCn1cnc2c(=O)[nH]c(N)nc21)Oc1ccccc1 (centres unmarked) :: 0.018
2) CCCCCCCCCCCCCCCCCCOCCOP(=O)(CO[C@H](COC)Cn1cnc2c(N)ncnc21)Oc1ccccc1 (some centres unmarked) :: 15
